# tested_target: Adrenergic β2 (Homo sapiens, UniProt P07550)
# Construct: Adherent H292 cells were removed from tissue culture flasks; endogenous in cells; host or cells: H292 cells
# Sequence (P07550 whole entry): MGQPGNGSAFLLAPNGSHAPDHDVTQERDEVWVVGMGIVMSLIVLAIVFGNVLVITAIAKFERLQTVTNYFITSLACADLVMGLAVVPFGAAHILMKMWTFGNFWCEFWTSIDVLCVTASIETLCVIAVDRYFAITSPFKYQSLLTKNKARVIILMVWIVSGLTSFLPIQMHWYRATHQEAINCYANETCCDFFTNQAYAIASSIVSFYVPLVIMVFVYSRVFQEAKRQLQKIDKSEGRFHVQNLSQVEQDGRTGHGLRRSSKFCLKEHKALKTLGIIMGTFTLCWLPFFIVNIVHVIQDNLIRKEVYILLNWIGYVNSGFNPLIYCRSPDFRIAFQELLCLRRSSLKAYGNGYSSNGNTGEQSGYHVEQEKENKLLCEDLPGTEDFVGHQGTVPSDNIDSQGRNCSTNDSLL
# test_protocol: Adrenergic β2 mediated cAMP production in H292 cells (AlphaScreen cAMP detection)
# Assay type: cell-based
# test_settings: cAMP production, 60 min at room temperature, 300 μM rolipram, read-out: β2 pEC50 (converted)
Where a name gives a salt, the structure may show the parent alone.
endpoint_label: EC50 (nM)

O=C1COc2c(CCNCCN(C(=O)CCOCCc3cccc(-c4cnco4)c3)C3CCCCC3)ccc(O)c2N1 [Example 10, Trifluoroacetic Acid Salt]; 10
Cn1cc(-c2cccc(CCOCCC(=O)N(CCNCCc3ccc(O)c4c3OCC(=O)N4)C3CCCCC3)c2F)cn1 [Example 16, Trifluoroacetic Acid Salt]; 12.6
Cn1cc(-c2cccc(CCOCCC(=O)N(CCNCCc3ccc(O)c4c3OCC(=O)N4)C3CCCCC3)c2)cn1; 6.31
Cc1nc(-c2cccc(CCOCCC(=O)N(CCNCCc3ccc(O)c4c3OCC(=O)N4)C3CCCCC3)c2)[nH]c1C; 7.94

====

The entries below come with measured IC50 values attached.
# tested_target: recombinant human adrenergic beta 1 receptors (Homo sapiens, UniProt P08588)
# Construct: purchased Euroscreen
# Sequence (P08588 whole entry): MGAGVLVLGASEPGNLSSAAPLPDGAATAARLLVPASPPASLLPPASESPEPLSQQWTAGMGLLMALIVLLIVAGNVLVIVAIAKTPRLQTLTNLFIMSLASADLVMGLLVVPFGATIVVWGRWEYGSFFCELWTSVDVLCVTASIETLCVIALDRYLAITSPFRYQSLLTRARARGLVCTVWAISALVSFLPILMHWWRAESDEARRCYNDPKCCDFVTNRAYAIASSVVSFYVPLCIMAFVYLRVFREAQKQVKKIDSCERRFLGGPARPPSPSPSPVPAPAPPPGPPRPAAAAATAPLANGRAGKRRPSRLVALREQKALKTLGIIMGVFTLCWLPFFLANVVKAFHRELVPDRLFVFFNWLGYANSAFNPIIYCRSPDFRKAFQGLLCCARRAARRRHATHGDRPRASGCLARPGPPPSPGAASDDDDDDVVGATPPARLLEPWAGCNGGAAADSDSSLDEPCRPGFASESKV
# test_protocol: Adrenergic β1 selectivity binding assay ([125I]-Iodocyanopindolol)
# test_settings: inhibition of [125I]-Iodocyanopindolol binding, human β1 membranes; read-out: β1 bind p IC50 (converted)
Structures can show the parent of a compound that is named as a salt.
endpoint_label: IC50

O=C1COc2c(CCNCCN(C(=O)CCOCCc3cccc(-c4nn[nH]n4)c3)C3CCCCC3)ccc(O)c2N1 [Example 15, Trifluoroacetic Acid Salt]; > 10 µM
Cn1cc(-c2cccc(CCOCCC(=O)N(CCNCCc3ccc(O)c4c3OCC(=O)N4)C3CCCCCC3)c2)cn1 [Example 31, Trifluoroacetic Acid Salt]; 5.01 µM
O=C1COc2c(CCNCCN(C(=O)CCOCCc3cccc(-c4c[nH]nn4)c3)C3CCCCC3)ccc(O)c2N1 [Example 14, Trifluoroacetic Acid Salt]; > 10 µM
O=C1COc2c(CCNCCN(C(=O)CCOCCc3cccc(-c4cnn(CC5CC5)c4)c3)C3CCCC3)ccc(O)c2N1 [Example 19, Trifluoroacetic Acid Salt]; 3.98 µM
Cn1nccc1-c1cccc(CCOCCC(=O)N(CCNCCc2ccc(O)c3c2OCC(=O)N3)C2CCCCC2)c1 [Example 03, Trifluoroacetic Acid Salt]; > 10 µM
CCn1cc(-c2cccc(CCOCCC(=O)N(CCNCCc3ccc(O)c4c3OCC(=O)N4)C3CCCCC3)c2)nn1 [Example 04, Trifluoroacetic Acid Salt]; > 10 µM

====

Reported log10 EC50 is given for each of the following compounds.
# tested_target: Adrenergic β2 (Homo sapiens, UniProt P07550)
# Construct: Adherent H292 cells were removed from tissue culture flasks; endogenous in cells; host or cells: H292 cells
# test_protocol: Adrenergic β2 mediated cAMP production in H292 cells (AlphaScreen cAMP detection)
# Type: cell-based
# test_settings: cAMP production, 60 min at room temperature, 300 μM rolipram, read-out: β2 pEC50 (converted)
Where a name gives a salt, the structure may show the parent alone.
endpoint_label: log10 EC50 (log10 of the value in nM)

O=C1COc2c(CCNCCN(C(=O)CCOCCc3cccc(-c4c[nH]nn4)c3)C3CCCCC3)ccc(O)c2N1 [Example 14, Trifluoroacetic Acid Salt]; 0.90
Cn1nccc1-c1cccc(CCOCCC(=O)N(CCNCCc2ccc(O)c3c2OCC(=O)N3)C2CCCCC2)c1 [Example 03, Trifluoroacetic Acid Salt]; 1.00
Cc1nc(-c2cccc(CCOCCC(=O)N(CCNCCc3ccc(O)c4c3OCC(=O)N4)C3CCCCC3)c2)no1 [Example 27, Trifluoroacetic Acid Salt]; 1.20
CC(C)[C@@H](C)N(CCNCCc1ccc(O)c2c1OCC(=O)N2)C(=O)CCOCCc1cccc(-c2cnn(C)c2)c1 [Example 09, Trifluoroacetic Acid Salt]; 0.90
CCn1cc(-c2cccc(CCOCCC(=O)N(CCNCCc3ccc(O)c4c3OCC(=O)N4)C3CCCCC3)c2)cn1; 0.80
Cn1cc(-c2cccc(CCOCCC(=O)N(CCNCCc3ccc(O)c4c3OCC(=O)N4)C3CCCCCC3)c2)cn1 [Example 31, Trifluoroacetic Acid Salt]; 0.50
CCn1ccnc1-c1cccc(CCOCCC(=O)N(CCNCCc2ccc(O)c3c2OCC(=O)N3)C2CCCCC2)c1 [Example 29, Trifluoroacetic Acid Salt]; 1.70
Cc1nc(-c2cccc(CCOCCC(=O)N(CCNCCc3ccc(O)c4c3OCC(=O)N4)C3CCCCC3)c2)cn1C [Example 35, Trifluoroacetic Acid Salt]; 1.10
C[C@@H](N(CCNCCc1ccc(O)c2c1OCC(=O)N2)C(=O)CCOCCc1cccc(-c2cnn(C)c2)c1)C(C)(C)C [Example 26, Trifluoroacetic Acid Salt]; 1.10
O=C1COc2c(CCNCCN(C(=O)CCOCCc3cccc(-c4cnn(CC5CC5)c4)c3)C3CCCC3)ccc(O)c2N1 [Example 19, Trifluoroacetic Acid Salt]; 0.80
CCn1cc(-c2cccc(CCOCCC(=O)N(CCNCCc3ccc(O)c4c3OCC(=O)N4)C3CCCCC3)c2)nn1 [Example 04, Trifluoroacetic Acid Salt]; 1.10
Cn1cc(-c2cccc(CCOCCC(=O)N(CCNCCc3ccc(O)c4c3OCC(=O)N4)C3CCCCCC3)c2)nn1 [Example 06, Trifluoroacetic Acid Salt]; 1.10
CC(C)n1cc(-c2cccc(CCOCCC(=O)N(CCNCCc3ccc(O)c4c3OCC(=O)N4)C3CCCC3)c2)cn1 [Example 22, Trifluoroacetic Acid Salt]; 0.90
Cc1c(-c2cccc(CCOCCC(=O)N(CCNCCc3ccc(O)c4c3OCC(=O)N4)C3CCCCC3)c2)cnn1C [Example 37, Trifluoroacetic Acid Salt]; 0.80
CC(C)n1cc(-c2cccc(CCOCCC(=O)N(CCNCCc3ccc(O)c4c3OCC(=O)N4)C3CCCCC3)c2)nn1 [Example 12, Trifluoroacetic Acid Salt]; 1.30
O=C1COc2c(CCNCCN(C(=O)CCOCCc3cccc(-c4ncon4)c3)C3CCCCC3)ccc(O)c2N1 [Example 11, Trifluoroacetic Acid Salt]; 1.00
COCCn1cc(-c2cccc(CCOCCC(=O)N(CCNCCc3ccc(O)c4c3OCC(=O)N4)C3CCCCC3)c2)cn1 [Example 36, Trifluoroacetic Acid Salt]; 1.30
Cn1ccnc1-c1cccc(CCOCCC(=O)N(CCNCCc2ccc(O)c3c2OCC(=O)N3)C2CCCCC2)c1; 1.10
